- System: HOP-62 NSCLC
- protocol-text: NCI tumour cell line growth inhibition, 48 h
outcome-measure: TGI (µM)

[[record]]
molecule = "CC(C)(C)CN1[C@@H]2CCCC[C@H]2N(CC(C)(C)C)P1(=O)C(O)/C=C/c1ccccc1 (stereo not given in full)"
units_label = "µM"
relation_sign = ">"
endpoint_result = 100

[[record]]
molecule = "COc1ccc(C2CC(c3cccc(OC)c3)=NN2C(=O)c2cc(OC)c(OC)c(OC)c2)cc1 (stereo not given)"
units_label = "µM"
relation_sign = ">"
endpoint_result = 100

[[record]]
molecule = "O=C(/C=N/O)Nc1ccc(Cl)c(I)c1"
units_label = "µM"
relation_sign = "="
endpoint_result = 70.7

[[record]]
molecule = "CCN(CC)c1ccc2cc(-c3csc(C)n3)c(=O)oc2c1"
units_label = "µM"
relation_sign = "="
endpoint_result = 94.6

[[record]]
molecule = "N/N=C(/CC(O)(C(F)(F)F)C(F)(F)F)c1ccccc1"
units_label = "µM"
relation_sign = ">"
endpoint_result = 10

